# experimental target: T1, KDM4B-DTD N951M (Homo sapiens)
# T1 chain: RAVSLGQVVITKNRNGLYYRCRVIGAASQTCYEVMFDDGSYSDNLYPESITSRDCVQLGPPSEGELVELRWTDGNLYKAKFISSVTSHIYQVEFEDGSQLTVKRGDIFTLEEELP
# experiment: FP
No end group written: not given here.
assay metric: Kd (µM)
Record the value in µM, omitting the unit from your answer.

Lab note: measured Kd of RKQLATK(Me3)AARKSAPAT (also: fluorescein label, end not given here) [H3 (17-32) K23me3 peptide, fluorescein-labelled] was 41.4

Data origin: paper PMC5114558
